Origin of the recorded values: ChEMBL document CHEMBL1134901

# System: MT4
# assay: Concentration required to inhibit the spread of viral infection in MT-4 human T-lymphoid cells infected by the NL4-3 virus
# Assay type: functional
# setupConditions: read-out: CIC95

smilesText	limitOperator	IC95 / nM
CC(C)(c1cc2cnccc2o1)N1CCN(C[C@@H](O)C[C@@H](Cc2ccccc2)C(=O)N[C@H]2c3ccccc3OC[C@H]2O)[C@H](C(=O)NC2CC2)C1	=	62
CC(C)(c1cc2cnccc2o1)N1CCN(C[C@@H](O)C[C@@H](Cc2ccccc2)C(=O)N[C@H]2c3ccccc3OC[C@H]2O)[C@H](C(=O)NCCC(F)(F)F)C1	=	62
CC(C)(c1cc2cnccc2o1)N1CCN(C[C@@H](O)C[C@@H](Cc2ccccc2)C(=O)N[C@H]2c3ccccc3OC[C@H]2O)[C@H](C(=O)NC2CCCC2)C1	≤	8
CC(C)(c1cc2cnccc2o1)N1CCN(C[C@@H](O)C[C@@H](Cc2ccccc2)C(=O)N[C@H]2c3ccccc3OC[C@H]2O)[C@H](C(=O)Nc2ccccc2)C1	=	250
CC(C)(C)NC(=O)[C@@H]1CN(C(C)(C)c2cc3cnccc3o2)CCN1C[C@@H](O)C[C@@H](Cc1ccccc1)C(=O)N[C@H]1c2ccccc2OC[C@H]1O	≤	8
CC(C)(c1cc2cnccc2o1)N1CCN(C[C@@H](O)C[C@@H](Cc2ccccc2)C(=O)N[C@H]2c3ccccc3OC[C@H]2O)[C@H](C(=O)NCC(F)(F)C(F)(F)F)C1	≤	8
CC(C)(C)CNC(=O)[C@@H]1CN(C(C)(C)c2cc3cnccc3o2)CCN1C[C@@H](O)C[C@@H](Cc1ccccc1)C(=O)N[C@H]1c2ccccc2OC[C@H]1O	=	31
CCNC(=O)[C@@H]1CN(C(C)(C)c2cc3cnccc3o2)CCN1C[C@@H](O)C[C@@H](Cc1ccccc1)C(=O)N[C@H]1c2ccccc2OC[C@H]1O	=	31
CC(C)CNC(=O)[C@@H]1CN(C(C)(C)c2cc3cnccc3o2)CCN1C[C@@H](O)C[C@@H](Cc1ccccc1)C(=O)N[C@H]1c2ccccc2OC[C@H]1O	=	15
CC(C)(c1cc2cnccc2o1)N1CCN(C[C@@H](O)C[C@@H](Cc2ccccc2)C(=O)N[C@H]2c3ccccc3OC[C@H]2O)[C@H](C(=O)NCC(F)(F)F)C1	≤	8
CC(C)(c1cc2cnccc2o1)N1CCN(C[C@@H](O)C[C@@H](Cc2ccccc2)C(=O)N[C@H]2c3ccccc3OC[C@H]2O)[C@H](C(=O)NCC2CC2)C1	=	46
CC(C)(c1cc2cnccc2o1)N1CCN(C[C@@H](O)C[C@@H](Cc2ccccc2)C(=O)N[C@H]2c3ccccc3OC[C@H]2O)[C@H](C(=O)NCc2cccs2)C1	=	94
CC(C)(c1cc2cnccc2o1)N1CCN(C[C@@H](O)C[C@@H](Cc2ccccc2)C(=O)N[C@H]2c3ccccc3OC[C@H]2O)[C@H](C(=O)NCc2ccccc2)C1	=	125
